Reported MIC, Proteus vulgaris HX 19.
Number only, in µg/mL; omit the unit.

Example entries and their recorded answers appear below.
{"Compound": "CO[C@@]1(NC(=O)[C@H](NC(=O)c2cnc3cccnc3c2O)c2ccc(O)cc2)C(=O)N2C(C(=O)O)=C(CSc3cnn[nH]3)CS[C@@H]21", "MIC [µg/mL]": 0.78}
{"Compound": "COC1(NC(=O)C(NC(=O)c2cnc3cccnc3c2O)c2ccc(O)cc2)C(=O)N2C(C(=O)O)=C(CSc3ccc4nnnn4n3)CSC21 (stereo not drawn)", "MIC [µg/mL]": 0.39}
{"Compound": "CO[C@@]1(NC(=O)C(NC(=O)c2ccnnc2O)c2ccc(O)cc2)C(=O)N2C(C(=O)O)=C(CSc3nnc(C)s3)CS[C@@H]21 (stereo partly drawn)", "MIC [µg/mL]": 0.78}
{"Compound": "CO[C@@]1(NC(=O)C(NC(=O)c2cnc3nc(C)ccc3c2O)c2ccc(O)cc2)C(=O)N2C(C(=O)O)=C(COC(C)=O)CS[C@@H]21 (stereo partly drawn)", "MIC [µg/mL]": 1.56}
{"Compound": "CO[C@@]1(NC(=O)C(NC(=O)c2cncnc2O)c2ccccc2)C(=O)N2C(C(=O)O)=C(COC(N)=O)CS[C@@H]21 (stereo partly drawn)", "MIC [µg/mL]": 0.78}

Alright, here's another compound for you.
Problem: Request the reported MIC associated with COC1(NC(=O)C(NC(=O)c2cnc3ccncc3c2O)c2ccc(O)cc2)C(=O)N2C(C(=O)O)=C(CSc3nnnn3C)CSC21 (stereo not drawn)
Result: 0.78
